target: T1, human IL-17A/F (human, UniProt Q16552 24-155; Q96PD4 31-163); assay: SPR Biacore, captured binder
T1 construct: Heterodimer of IL-17A and IL-17F, purified recombinant; also called HuIL-17A/F; Hu IL-17A/F
T1 sequence (Q16552 24-155 limits assumed, chain 1 of 2): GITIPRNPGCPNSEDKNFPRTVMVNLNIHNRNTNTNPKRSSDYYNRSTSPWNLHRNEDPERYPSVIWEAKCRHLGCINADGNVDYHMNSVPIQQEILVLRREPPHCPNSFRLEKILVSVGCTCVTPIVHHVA
T1 sequence (Q96PD4 31-163 limits assumed, chain 2 of 2): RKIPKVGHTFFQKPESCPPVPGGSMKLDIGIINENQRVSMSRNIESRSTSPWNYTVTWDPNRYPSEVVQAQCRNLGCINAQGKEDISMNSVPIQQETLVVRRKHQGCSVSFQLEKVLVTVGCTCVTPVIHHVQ
reportedProperty: Kd

binder: IL17-G9-1 (antibody, V domains shown) VH: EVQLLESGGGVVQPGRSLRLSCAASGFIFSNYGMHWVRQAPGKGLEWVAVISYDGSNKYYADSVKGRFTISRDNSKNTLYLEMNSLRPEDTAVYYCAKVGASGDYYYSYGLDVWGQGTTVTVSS VL: QSVLTQPPSASGTPGQTVSISCSGSHSNIGRHPVDWYQQVPGAAPKLLMYYGGYRPSGVPDRFSGSQSGTSASLAISGLQSEDEADYYCATWDDRLVGYVFGSGTKVTVLG
reportedProperty: Kd
reading: 3.13 pM
//
binder: IL17-G9-M1 (antibody, V domains shown) VH: EVQLLESGGGVVQPGRSLRLSCAASGFIFSNYGMHWVRQAPGKGLEWVAVISYDGGYKYYADSVKGRFTISRDNSKNTLYLEMNSLRPEDTAVYYCAKLSLSGDYYYSYGFDGWGQGTTVTVSS VL: QSVLTQPPSASGTPGQTVSISCSGSKSNIGSHYVHWYQQVPGAAPKLLMYDFGQRPSGVPDRFSGSQSGTSASLAISGLQSEDEADYYCGTWDDWLGGYVFGTGTKVTVLG
reportedProperty: Kd
reading: 244 pM
//
binder: IL17-B6-5 (antibody, V domains shown, also called pJP243 B6.1 #5VH / pJP244 B6.1 #5VK) VH: EVQLVQSGAEVKKPGESVKISCKASGGSFRSYGISWVRQAPGQGLEWMGGITHFFGITDYAQKFQGRVTITADESTTTAYMELSGLTSDDTAVYYCAREPNDFWNGYYDTHDFDSWGQGTTVTVSS VL: EIVLTQSPDFQSVTPKEKVTITCRASQNIGSELHWYQQKPDQSPKLLIKYASHSISGVPSRFSGSGSGTDFTLTINGLEAEDAATYYCHQSDTLPHTFGQGTKVDIK
reportedProperty: Kd
reading: 2.22 pM
